Source: patent US9108936B2

Target: KCNQ2/3 channels (Homo sapiens, UniProt O43525+O43526)
Assay: Fluorescence assay using a voltage sensitive dye (fluorimetry)
Settings: CHO-K1 cells expressing KCNQ2/3; voltage-sensitive dye, KCl depolarization; read-out: Fluorimetry EC50/IC50
parameter_measured: EC50 (µM)

>>> quantitative_readout("Cc1cc(N2CCOCC2)cc(C2CC2)c1C(=O)NCC[C@@H](O)C(C)(C)C [Example 28]")
4.66
>>> quantitative_readout("Cc1cc(N2CCOCC2)cc(C2CC2)c1C(=O)NCc1ccc(Cl)cc1 [Example 15]")
0.552
>>> quantitative_readout("Cc1cc(N2CCOCC2)cc(C2CC2)c1C(=O)NCc1ccc(C(F)(F)F)cn1 [Example 36]")
5.26
>>> quantitative_readout("Cc1cc(N2CCOCC2)cc(C(C)C)c1C(=O)NCc1ccc(C(F)(F)F)cn1 [Example 35]")
3.07

====

Molecular target: KCNQ2/3 channels (Homo sapiens, UniProt O43525+O43526)
Experiment: Fluorescence assay using a voltage sensitive dye (fluorimetry)
Details: CHO-K1 cells expressing KCNQ2/3; voltage-sensitive dye, KCl depolarization; read-out: Fluorimetry EC50/IC50
pEC50: −log10 of the molar value.
parameter_measured: pEC50

>>> quantitative_readout("CC[S+]([O-])c1cc(N2CCOCC2)cc(C)c1C(=O)NCCCC(C)(C)C (stereo not drawn)")
5.06
>>> quantitative_readout("Cc1cc(N2CCOCC2)cc(C2CCCC2)c1C(=O)NCc1ccc(Cl)cc1")
7.48
>>> quantitative_readout("C=C(C)c1cc(N2CCOCC2)cc(C)c1C(=O)NCc1ccc(C(F)(F)F)cc1")
6.20
>>> quantitative_readout("CCc1cc(N2CCOCC2)cc(CC)c1C(=O)NCc1ccc(Cl)cc1")
6.30
>>> quantitative_readout("Cc1cc(N2CCOCC2)cc(C(C)C)c1C(=O)NCc1ccc(OC(F)(F)F)cc1")
6.86
>>> quantitative_readout("CCSc1cc(N2CCOC[C@H]2C)cc(C)c1C(=O)NCc1ccc(Cl)cc1")
6.59
>>> quantitative_readout("Cc1cc(N2CCOCC2)cc(C(C)C)c1C(=O)NCC[C@@H](O)C(C)(C)C")
5.51
>>> quantitative_readout("Cc1cc(N2CCOCC2)cc(C2CC2)c1C(=O)NCc1ccc(F)cc1")
6.01
>>> quantitative_readout("CCSc1cc(N2CCOC[C@H]2C)cc(C)c1C(=O)NCCCC(C)(C)C")
6.97
>>> quantitative_readout("Cc1cc(N2CCOCC2)cc(C(C)C)c1C(=O)NCc1ccc(Cl)cn1")
5.44
>>> quantitative_readout("Cc1cc(N2CCOCC2)cc(C2CC2)c1C(=O)NCC[C@H](O)C(C)(C)C")
5.74
>>> quantitative_readout("COc1cc(N2CCOCC2)cc(C)c1C(=O)NCc1ccc(Cl)cc1")
5.78
>>> quantitative_readout("CCSc1cc(N2CCOCC2)cc(C)c1C(=O)NCCCC(C)(C)C")
6.47
>>> quantitative_readout("CC(C)c1cc(N2CCOCC2)cc(F)c1C(=O)NCc1ccc(Cl)cc1")
6.66
>>> quantitative_readout("Cc1cc(N2CCOCC2)cc(C(F)F)c1C(=O)NCc1ccc(Cl)cc1")
6.15
>>> quantitative_readout("CCS(=O)(=O)c1cc(N2CCOCC2)cc(C)c1C(=O)NCc1ccc(Cl)cc1")
5.26
>>> quantitative_readout("Cc1cc(N2CCOCC2)cc(N2CC[C@@H](F)C2)c1C(=O)NCc1ccc(Cl)cc1")
6.13
>>> quantitative_readout("Cc1cc(N2CCCCC2)cc(C(F)(F)F)c1C(=O)NCc1cccc(F)c1")
6.17
